meta.source: patent US11999727B2

molecular target: PRMT5 (Homo sapiens); construct: purchased Viva (custom protein); assay: PRMT5 biochemical IC50 assay with no cofactor; conditions: PRMT5, no cofactor; read-out: No Cofactor/rel IC50
Sequence (O14744 whole entry): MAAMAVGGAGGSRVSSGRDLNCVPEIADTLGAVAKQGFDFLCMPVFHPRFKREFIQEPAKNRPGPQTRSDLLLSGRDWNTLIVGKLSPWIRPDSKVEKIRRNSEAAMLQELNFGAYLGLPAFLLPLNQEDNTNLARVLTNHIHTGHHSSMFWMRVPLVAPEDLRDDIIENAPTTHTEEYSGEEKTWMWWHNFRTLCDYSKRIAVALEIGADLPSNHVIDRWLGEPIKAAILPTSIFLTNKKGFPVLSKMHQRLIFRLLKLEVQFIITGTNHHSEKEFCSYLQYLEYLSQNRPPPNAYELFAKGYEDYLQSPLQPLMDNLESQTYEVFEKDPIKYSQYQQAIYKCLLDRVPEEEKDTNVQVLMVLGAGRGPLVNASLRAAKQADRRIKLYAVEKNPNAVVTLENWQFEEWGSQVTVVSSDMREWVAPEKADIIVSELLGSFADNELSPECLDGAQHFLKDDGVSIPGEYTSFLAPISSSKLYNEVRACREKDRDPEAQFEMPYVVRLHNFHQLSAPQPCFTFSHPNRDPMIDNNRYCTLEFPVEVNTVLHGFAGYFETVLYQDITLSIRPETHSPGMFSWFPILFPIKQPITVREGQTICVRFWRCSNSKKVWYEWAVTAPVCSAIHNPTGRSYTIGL
Sequence (Q9BQA1 whole entry partner): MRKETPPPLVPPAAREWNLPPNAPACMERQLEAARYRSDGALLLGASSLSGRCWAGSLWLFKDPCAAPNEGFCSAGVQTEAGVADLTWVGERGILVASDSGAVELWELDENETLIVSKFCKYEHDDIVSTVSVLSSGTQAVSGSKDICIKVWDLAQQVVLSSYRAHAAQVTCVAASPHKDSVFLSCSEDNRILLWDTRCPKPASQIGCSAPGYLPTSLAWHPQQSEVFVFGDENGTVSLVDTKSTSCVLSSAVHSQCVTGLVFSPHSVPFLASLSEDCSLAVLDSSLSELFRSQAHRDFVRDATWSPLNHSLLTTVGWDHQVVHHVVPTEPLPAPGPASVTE
Kindly state IC50 for each of the entries shown.

Sample answers from the record:
C[C@H]1CC[C@H]2CCCC[C@H]2N1C(=O)C(=O)Nc1cncc(C(N)=O)c1 (single isomer, unassigned) = 50 to 500 nM
COc1ncc(NC(=O)C(=O)N2C[C@@H](C)CC[C@@H]2c2ccc3scnc3c2)cc1C(N)=O (single isomer, unassigned) = < 50 nM
Cc1cc(NC(=O)C(=O)N2C[C@H](C)CC[C@H]2c2ccc3[nH]c(N)nc3c2)cnc1C (racemic) = 50 to 500 nM
C[C@@H]1CC[C@@H](c2ccc(NS(C)(=O)=O)cc2)N(C(=O)C(=O)Nc2cncc(C(N)=O)c2)C1 (single isomer, unassigned) = > 500 nM
Cc1cc(NC(=O)C(=O)N2C[C@H](C)C(F)(F)C[C@H]2c2ccc(F)cc2)cnc1N (single isomer, unassigned) = > 500 nM

# return IC50 for each item in the list
1. C[C@@H]1CC[C@@H](c2ccccc2C#N)N(C(=O)C(=O)Nc2cncc(C(N)=O)c2)C1 (racemic)
2. C[C@@H]1CC[C@@H]([C@H]2CCC[C@@H](O)C2)N(C(=O)C(=O)Nc2cncc(C(N)=O)c2)C1 (single isomer, unassigned)
3. C[C@@H]1CC[C@@H](c2ccc3nncn3c2)N(C(=O)C(=O)Nc2cncc(C(N)=O)c2)C1 (racemic)
4. Cc1cc(NC(=O)C(=O)N2C[C@@H](C)CC[C@@H]2c2ccn(-c3cc[nH]n3)n2)cnc1N (single isomer, unassigned)

OUTPUT:
> 500 nM
> 500 nM
50 to 500 nM
> 500 nM
